Molecular target: T1, wtTIA-RRM123 (Homo sapiens, UniProt P31483-2 1-274)
T1 sequence: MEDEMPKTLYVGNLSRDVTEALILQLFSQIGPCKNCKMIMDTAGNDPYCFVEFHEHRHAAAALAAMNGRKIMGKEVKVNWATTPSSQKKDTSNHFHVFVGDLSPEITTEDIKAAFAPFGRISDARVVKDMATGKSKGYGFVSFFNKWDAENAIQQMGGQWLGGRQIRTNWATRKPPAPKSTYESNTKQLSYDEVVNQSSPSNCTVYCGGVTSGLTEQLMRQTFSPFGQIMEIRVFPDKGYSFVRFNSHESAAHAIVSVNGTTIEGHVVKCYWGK
Assay: ITC
MEASURED_ENDPOINT: pKd
pKd is a log-scale quantity: -log10 of the concentration expressed in molar.

Give me measured pKd, please, for this binder: UUUUUUUUUUUUUUUUUUUU (ssRNA) [U20 RNA]
9.30
